Assay: Partition coefficient (logP) of the compound
Assay type: physicochemical
Conditions: octanol/water
Consider the cut-off 2. If the recorded logP is strictly smaller, the label is class 1; if not, the label is class 0.

smiles | label
COc1ccccc1CNC(=O)Cn1c(Cl)cnc(NCC(F)(F)c2cccc[n+]2[O-])c1=O | class 1
O=C(Cn1c(Cl)cnc(NCC(F)(F)c2cccc[n+]2[O-])c1=O)NCc1cccc(Br)c1 | class 0
O=C(Cn1c(Cl)cnc(NCC(F)(F)c2cccc[n+]2[O-])c1=O)NCc1ccccc1OC(F)F | class 1
Cc1cccc(CNC(=O)Cn2c(Cl)cnc(NCC(F)(F)c3cccc[n+]3[O-])c2=O)c1 | class 1
O=C(Cn1c(Cl)cnc(NCC(F)(F)c2cccc[n+]2[O-])c1=O)NCc1ccccc1Cl | class 1
O=C(Cn1c(Cl)cnc(NCC(F)(F)c2cccc[n+]2[O-])c1=O)NCc1ccccc1C(F)(F)F | class 0
COc1cccc(CNC(=O)Cn2c(Cl)cnc(NCC(F)(F)c3cccc[n+]3[O-])c2=O)c1 | class 1
O=C(Cn1c(Cl)cnc(NCC(F)(F)c2cccc[n+]2[O-])c1=O)NCc1cccc(OC(F)F)c1 | class 1
O=C(Cn1c(Cl)cnc(NCC(F)(F)c2cccc[n+]2[O-])c1=O)NCc1ncccc1Cl | class 1
O=C(Cn1c(Cl)cnc(NCC(F)(F)c2cccc[n+]2[O-])c1=O)NCc1cc(Cl)ccc1Cl | class 0
O=C(Cn1c(Cl)cnc(NCC(F)(F)c2cccc[n+]2[O-])c1=O)NCc1ncccc1F | class 1
O=C(Cn1c(Cl)cnc(NCC(F)(F)c2cccc[n+]2[O-])c1=O)NCc1cccc(Cl)c1Cl | class 0
O=C(Cn1c(Cl)cnc(NCC(F)(F)c2cccc[n+]2[O-])c1=O)NCc1c(F)ccc(F)c1F | class 1
O=C(Cn1c(Cl)cnc(NCC(F)(F)c2cccc[n+]2[O-])c1=O)NCc1ccccc1OC(F)(F)F | class 0
Cc1ccccc1CNC(=O)Cn1c(Cl)cnc(NCC(F)(F)c2cccc[n+]2[O-])c1=O | class 1
